- SYSTEM UNDER TEST: hERG potassium channel (Homo sapiens)
- Sequence (Q12809 whole entry): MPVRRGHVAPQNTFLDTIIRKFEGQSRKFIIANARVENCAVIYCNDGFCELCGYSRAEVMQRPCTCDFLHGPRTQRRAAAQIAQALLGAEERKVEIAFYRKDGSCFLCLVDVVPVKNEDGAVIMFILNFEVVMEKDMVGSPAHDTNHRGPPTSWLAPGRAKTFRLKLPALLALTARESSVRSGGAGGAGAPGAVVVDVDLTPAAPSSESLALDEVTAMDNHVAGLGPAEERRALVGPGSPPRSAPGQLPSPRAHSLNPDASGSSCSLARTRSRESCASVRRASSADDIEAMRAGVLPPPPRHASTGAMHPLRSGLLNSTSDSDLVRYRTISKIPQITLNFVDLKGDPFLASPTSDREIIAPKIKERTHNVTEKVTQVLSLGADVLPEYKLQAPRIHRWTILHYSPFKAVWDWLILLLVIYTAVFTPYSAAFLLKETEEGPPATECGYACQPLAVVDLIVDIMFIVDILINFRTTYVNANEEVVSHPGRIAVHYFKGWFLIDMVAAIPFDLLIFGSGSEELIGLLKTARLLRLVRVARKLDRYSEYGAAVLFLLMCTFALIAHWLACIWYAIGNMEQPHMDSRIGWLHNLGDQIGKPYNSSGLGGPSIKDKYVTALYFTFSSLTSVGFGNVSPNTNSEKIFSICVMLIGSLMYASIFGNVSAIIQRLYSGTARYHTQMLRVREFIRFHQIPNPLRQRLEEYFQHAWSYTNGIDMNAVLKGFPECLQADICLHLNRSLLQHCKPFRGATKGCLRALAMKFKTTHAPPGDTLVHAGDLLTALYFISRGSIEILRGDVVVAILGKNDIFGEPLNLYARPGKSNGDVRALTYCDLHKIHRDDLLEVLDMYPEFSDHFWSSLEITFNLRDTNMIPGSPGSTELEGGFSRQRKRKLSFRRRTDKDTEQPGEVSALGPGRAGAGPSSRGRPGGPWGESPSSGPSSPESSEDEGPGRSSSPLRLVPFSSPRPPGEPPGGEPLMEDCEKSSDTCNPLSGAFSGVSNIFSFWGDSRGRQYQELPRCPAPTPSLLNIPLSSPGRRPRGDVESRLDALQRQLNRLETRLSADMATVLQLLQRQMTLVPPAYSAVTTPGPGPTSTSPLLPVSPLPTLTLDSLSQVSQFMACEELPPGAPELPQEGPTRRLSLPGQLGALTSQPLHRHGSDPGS
- EXPERIMENT NOTES: hERG screening assay (PatchXpress, CHO cells)
- Type: cell-based
- Set-up: unit not given here
hERG values, listed per item

Consider the worked cases shown below.
{"STRUCTURE STRING": "O=C1c2cc(C#Cc3ccc(C(F)(F)F)cc3)ccc2OCCN1Cc1ncccn1", "hERG": "<10"}
{"STRUCTURE STRING": "O=C1c2cc(-c3ccc(Cl)cc3F)ccc2OCCN1Cc1ncccn1", "hERG": "<10"}
{"STRUCTURE STRING": "O=C1c2cc(-c3ccc(C(F)(F)F)cc3)ccc2OC[C@H]2CN(CC(F)F)CCN12", "hERG": 16}
{"STRUCTURE STRING": "O=C1c2cc(-c3ccc(C(F)(F)F)cc3)ccc2OCCN1Cc1ncccn1", "hERG": "<10"}
{"STRUCTURE STRING": "CC(C)(C)c1ccc(-c2ccc3c(c2)C(=O)N(Cc2ncccn2)CCO3)cc1", "hERG": "<10"}
{"STRUCTURE STRING": "Cc1cccc(CN2CCOc3ccc(-c4ccc(OC(F)(F)F)cc4)cc3C2=O)n1", "hERG": "<10"}
{"STRUCTURE STRING": "O=C1c2cc(C#Cc3ccc(OC(F)(F)F)cc3)ccc2OCCN1Cc1ncccn1", "hERG": 30}
{"STRUCTURE STRING": "O=C1c2cc(-c3ccc(Cl)cc3)ccc2OCCN1Cc1ncccn1", "hERG": 26}

## Task Please give the documented hERG of O=C1CN(Cc2ccccc2)C(=O)c2cc(-c3ccc(C(F)(F)F)cc3)ccc2N1
## Result <10

----------
- SYSTEM UNDER TEST: hNav 1.8 sodium channel isoform (Homo sapiens)
- Sequence (Q9Y5Y9 whole entry, canonical isoform): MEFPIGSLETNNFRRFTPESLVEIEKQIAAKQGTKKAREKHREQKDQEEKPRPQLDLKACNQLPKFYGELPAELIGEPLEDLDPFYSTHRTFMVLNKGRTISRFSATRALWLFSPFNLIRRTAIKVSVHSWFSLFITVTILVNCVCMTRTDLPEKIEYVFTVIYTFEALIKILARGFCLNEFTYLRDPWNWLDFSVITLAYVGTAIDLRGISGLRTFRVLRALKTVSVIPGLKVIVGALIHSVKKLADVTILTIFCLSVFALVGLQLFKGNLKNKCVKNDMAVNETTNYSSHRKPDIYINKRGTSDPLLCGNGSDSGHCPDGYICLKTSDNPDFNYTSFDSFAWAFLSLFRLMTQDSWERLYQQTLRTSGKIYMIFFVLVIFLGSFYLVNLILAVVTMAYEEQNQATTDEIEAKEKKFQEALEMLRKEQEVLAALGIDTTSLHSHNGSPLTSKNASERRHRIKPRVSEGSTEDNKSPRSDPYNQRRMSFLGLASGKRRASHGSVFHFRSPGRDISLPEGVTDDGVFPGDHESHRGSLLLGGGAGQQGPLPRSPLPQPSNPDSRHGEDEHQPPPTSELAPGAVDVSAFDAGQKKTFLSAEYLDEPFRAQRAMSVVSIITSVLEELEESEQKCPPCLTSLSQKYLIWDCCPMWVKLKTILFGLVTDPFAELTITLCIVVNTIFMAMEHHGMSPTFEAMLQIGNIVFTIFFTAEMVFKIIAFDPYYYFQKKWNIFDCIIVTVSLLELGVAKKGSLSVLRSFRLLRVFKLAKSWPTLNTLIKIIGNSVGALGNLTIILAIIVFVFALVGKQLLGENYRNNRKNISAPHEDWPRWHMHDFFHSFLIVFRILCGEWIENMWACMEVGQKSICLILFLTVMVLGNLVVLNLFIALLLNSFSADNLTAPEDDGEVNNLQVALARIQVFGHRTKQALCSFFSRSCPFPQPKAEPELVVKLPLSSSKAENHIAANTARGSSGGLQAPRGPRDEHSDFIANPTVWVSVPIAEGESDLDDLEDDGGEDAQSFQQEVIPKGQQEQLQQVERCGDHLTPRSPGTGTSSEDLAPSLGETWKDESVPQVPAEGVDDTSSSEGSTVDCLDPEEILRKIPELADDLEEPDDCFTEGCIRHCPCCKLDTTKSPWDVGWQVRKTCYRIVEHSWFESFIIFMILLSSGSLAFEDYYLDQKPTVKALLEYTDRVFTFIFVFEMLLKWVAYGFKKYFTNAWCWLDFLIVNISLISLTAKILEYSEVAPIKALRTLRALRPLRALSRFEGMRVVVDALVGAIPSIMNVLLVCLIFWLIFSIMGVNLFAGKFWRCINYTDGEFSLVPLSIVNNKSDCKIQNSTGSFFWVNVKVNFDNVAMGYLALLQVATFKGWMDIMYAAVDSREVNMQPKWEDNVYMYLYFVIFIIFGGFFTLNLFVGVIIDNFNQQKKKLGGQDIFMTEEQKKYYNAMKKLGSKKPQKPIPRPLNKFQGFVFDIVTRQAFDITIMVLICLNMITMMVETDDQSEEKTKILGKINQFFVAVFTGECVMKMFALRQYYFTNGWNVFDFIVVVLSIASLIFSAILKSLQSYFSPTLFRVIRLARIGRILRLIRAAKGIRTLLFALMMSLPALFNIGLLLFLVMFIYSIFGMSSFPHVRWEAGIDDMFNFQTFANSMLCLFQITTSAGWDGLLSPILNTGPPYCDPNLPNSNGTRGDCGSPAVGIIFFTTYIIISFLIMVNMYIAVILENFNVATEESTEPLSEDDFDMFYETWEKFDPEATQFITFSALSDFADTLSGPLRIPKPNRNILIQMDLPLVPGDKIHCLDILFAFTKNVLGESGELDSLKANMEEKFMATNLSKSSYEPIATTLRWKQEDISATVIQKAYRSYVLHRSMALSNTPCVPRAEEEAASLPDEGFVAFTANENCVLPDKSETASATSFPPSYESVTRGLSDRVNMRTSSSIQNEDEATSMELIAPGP
- EXPERIMENT NOTES: hNav1.8 sodium channel block
- Format: cell-based
- STATED CONDITIONS: 10 Hz frequency
ASSAY ENDPOINT: IC50

## Task State IC50 on hNav 1.8 sodium channel isoform (Homo sapiens). Entry: O=C1c2cc(-c3ccc(OC(F)(F)F)cc3)ccc2OCCN1Cc1ncccn1
## Result > 10 µM

----------
Listing: inhibition at 1 µM of selected compounds
- SYSTEM UNDER TEST: wild-type human cardiac sodium channel, hNav1.5 (Homo sapiens, UniProt Q14524)
- Sequence (Q14524 whole entry): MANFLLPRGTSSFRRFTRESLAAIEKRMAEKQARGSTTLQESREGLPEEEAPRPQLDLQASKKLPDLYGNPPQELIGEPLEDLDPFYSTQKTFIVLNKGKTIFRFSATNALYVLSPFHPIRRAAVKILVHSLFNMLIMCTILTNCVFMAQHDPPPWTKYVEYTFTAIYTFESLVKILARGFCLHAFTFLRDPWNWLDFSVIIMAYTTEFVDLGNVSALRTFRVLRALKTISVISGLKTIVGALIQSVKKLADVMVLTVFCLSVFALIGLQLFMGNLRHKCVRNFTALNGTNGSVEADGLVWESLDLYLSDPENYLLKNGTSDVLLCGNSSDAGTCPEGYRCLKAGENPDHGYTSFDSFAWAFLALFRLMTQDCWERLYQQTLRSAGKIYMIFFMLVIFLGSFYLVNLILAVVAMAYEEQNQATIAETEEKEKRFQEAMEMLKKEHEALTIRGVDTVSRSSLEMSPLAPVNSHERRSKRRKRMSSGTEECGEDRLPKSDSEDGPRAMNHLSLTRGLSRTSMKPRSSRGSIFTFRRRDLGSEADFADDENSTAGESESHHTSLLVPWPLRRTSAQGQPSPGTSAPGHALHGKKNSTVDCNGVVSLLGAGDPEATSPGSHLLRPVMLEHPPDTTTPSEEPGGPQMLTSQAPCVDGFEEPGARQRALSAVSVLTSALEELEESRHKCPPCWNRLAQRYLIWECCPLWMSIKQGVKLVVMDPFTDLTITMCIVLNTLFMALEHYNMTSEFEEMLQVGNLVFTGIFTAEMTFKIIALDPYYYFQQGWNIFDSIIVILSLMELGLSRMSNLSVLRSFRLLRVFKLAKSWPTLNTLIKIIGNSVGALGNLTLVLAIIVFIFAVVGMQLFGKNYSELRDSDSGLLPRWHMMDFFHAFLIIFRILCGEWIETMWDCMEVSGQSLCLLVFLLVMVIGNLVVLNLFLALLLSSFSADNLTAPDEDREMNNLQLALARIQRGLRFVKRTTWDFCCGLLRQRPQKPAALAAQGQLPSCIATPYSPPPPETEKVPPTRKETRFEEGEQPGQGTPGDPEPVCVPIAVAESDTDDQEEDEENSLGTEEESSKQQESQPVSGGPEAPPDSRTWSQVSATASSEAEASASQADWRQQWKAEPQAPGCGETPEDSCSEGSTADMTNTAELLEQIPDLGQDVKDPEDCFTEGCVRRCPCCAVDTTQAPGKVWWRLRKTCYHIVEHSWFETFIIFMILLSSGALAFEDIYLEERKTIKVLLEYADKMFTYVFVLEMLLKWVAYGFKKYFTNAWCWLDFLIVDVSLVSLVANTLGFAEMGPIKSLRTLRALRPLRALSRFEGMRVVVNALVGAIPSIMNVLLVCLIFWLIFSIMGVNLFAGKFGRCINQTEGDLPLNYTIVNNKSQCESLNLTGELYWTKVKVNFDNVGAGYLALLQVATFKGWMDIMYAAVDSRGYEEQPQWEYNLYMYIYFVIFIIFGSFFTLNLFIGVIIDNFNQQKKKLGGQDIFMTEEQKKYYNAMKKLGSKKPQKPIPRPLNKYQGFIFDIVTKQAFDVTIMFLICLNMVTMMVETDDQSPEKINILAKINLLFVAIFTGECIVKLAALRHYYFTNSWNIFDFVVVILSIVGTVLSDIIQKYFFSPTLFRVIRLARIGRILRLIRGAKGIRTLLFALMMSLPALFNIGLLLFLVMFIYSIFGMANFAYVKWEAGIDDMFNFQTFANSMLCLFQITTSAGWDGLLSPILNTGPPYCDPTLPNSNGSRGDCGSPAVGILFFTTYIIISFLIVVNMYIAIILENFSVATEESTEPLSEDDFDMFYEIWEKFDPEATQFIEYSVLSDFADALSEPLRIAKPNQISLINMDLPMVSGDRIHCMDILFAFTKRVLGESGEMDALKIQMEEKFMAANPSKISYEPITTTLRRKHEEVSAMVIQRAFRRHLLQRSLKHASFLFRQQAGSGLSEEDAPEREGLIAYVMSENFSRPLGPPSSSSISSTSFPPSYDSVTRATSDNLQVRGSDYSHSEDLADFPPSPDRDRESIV
- EXPERIMENT NOTES: Late INa screening assay (QPatch whole cell patch clamp, HEK293)
- Format: cell-based
- STATED CONDITIONS: HEK293, percent block of late INa; compound at 1 μM; 10 μM Tefluthrin; read-out: Late INa 1 μM
- Method: The late sodium current (Late INa) and peak sodium current (Peak INa) assays are performed on an automated electrophysiology platform, QPatch 16× (Sophion Bioscience, Copenhagen, Denmark), which uses the whole cell patch clamp technique to measure currents through the cell membrane of up to 16 cells at a time. The assay uses an HEK293 (human embryonic kidney) cell line heterologously expressing the wild-type human cardiac sodium channel, hNav1.5, purchased from Millipore (Billerica, Mass.). […]
Return type: number; implicit unit %.

{"COMPOUND": "COCCN1CCOc2ccc(-c3ccc(OC(F)(F)F)cc3)cc2C1=O [II-11]", "inhibition at 1 µM / %": 23}
{"COMPOUND": "O=C1c2cc(-c3ccc(OC(F)(F)F)cc3)ccc2OCCN1Cc1ncc(-c2ccc(C(F)(F)F)nc2)cn1 [II-115]", "inhibition at 1 µM / %": 21}
{"COMPOUND": "O=C(c1cccnn1)N1CCOc2ccc(-c3ccc(OC(F)(F)F)cc3)cc2C1 [III-24]", "inhibition at 1 µM / %": 17}

// moving on: another record for inhibition at 1 µM
## Task Give the value of inhibition at 1 µM reported for the following: O=C1c2cc(-c3ccc(OC(F)(F)F)cc3)ccc2OCCN1Cc1ccc(C(F)(F)F)nc1 [II-16]
## Result 19

----------
- SYSTEM UNDER TEST: UniProt Q14524
- EXPERIMENT NOTES: Late INa screening assay (QPatch whole cell patch clamp, HEK293)
- Type: cell-based
- STATED CONDITIONS: HEK293, percent block of late INa; compound at 1 μM; 10 μM Tefluthrin; read-out: Late INa 1 μM
ASSAY ENDPOINT: inhibition at 1 µM (%)
The response must be a number in % with no trailing unit.

Would you please look over these solved cases?
{"COMPOUND": "O=C1c2cc(-c3ccc(OC(F)(F)F)cc3)ccc2OCCN1Cc1ccn(C2CCCC2)n1", "REPORTED VALUE": 23}
{"COMPOUND": "O=C1c2cc(/C=C/c3ccc(C(F)(F)F)cc3)ccc2OCCN1Cc1ccccc1", "REPORTED VALUE": 25}
{"COMPOUND": "O=C(c1ccccc1)N1CCOc2ccc(-c3ccc(OC(F)(F)F)cc3)cc2C1", "REPORTED VALUE": 35}
{"COMPOUND": "O=C1c2cc(-c3ccc(OC(F)(F)F)cc3)ccc2OCCN1Cc1nnc(C2CCC2)o1", "REPORTED VALUE": 30}
{"COMPOUND": "CC1CC=C(c2ccc3c(c2)C(=O)N(Cc2ncccn2)CCO3)CC1 (stereo not drawn)", "REPORTED VALUE": 49}
{"COMPOUND": "O=C1c2cc(-c3ccc(OCC4CCC4)cc3)ccc2OCCN1Cc1ncccn1", "REPORTED VALUE": 68}
{"COMPOUND": "Cc1ccc(-c2ccc3c(c2)C(=O)N(Cc2ncccn2)CCO3)cc1", "REPORTED VALUE": 22}
{"COMPOUND": "COc1cc(OC)nc(CN2CCOc3ccc(-c4ccc(OC(F)(F)F)cc4)cc3C2=O)n1", "REPORTED VALUE": 34}

## Task Under UniProt Q14524: report inhibition at 1 µM of O=C1c2cc(-c3ccc(OC(F)(F)F)cc3)ccc2OCCN1CC(F)F .
## Result 16

## Task Report value: inhibition at 1 µM, system: UniProt Q14524, compound: Cn1ccnc1C(=O)N1CCOc2ccc(-c3ccc(C(F)(F)F)cc3)cc2C1
## Result 41

## Task Tell me its inhibition at 1 µM on UniProt Q14524: O=C1c2cc(Oc3ccc(OC(F)(F)F)cc3)ccc2OCCN1Cc1ncccn1
## Result 19

## Task Enter recorded inhibition at 1 µM with UniProt Q14524 for O=C1c2cc(-c3ccc(OC(F)(F)F)cc3)ccc2OCCN1Cn1ccc(C(F)(F)F)n1 here.
## Result 17

## Task Under UniProt Q14524, report inhibition at 1 µM for Cc1cc(OC(F)(F)F)ccc1-c1ccc2c(c1)C(=O)N(Cc1ncccn1)CCO2
## Result 36

## Task # assay system UniProt Q14524: give inhibition at 1 µM of O=C1c2cc(-c3cnc(N4CCCCC4)nc3)ccc2OCCN1Cc1ncccn1
## Result 19

## Task Report value: inhibition at 1 µM, system: UniProt Q14524, compound: Cc1cc(C(F)(F)F)ccc1-c1ccc2c(c1)C(=O)N(Cc1ncccn1)CCO2
## Result 19

## Task Provide measured inhibition at 1 µM on UniProt Q14524 for CC1(C(=O)N2CCOc3ccc(-c4ccc(OC(F)(F)F)cc4)cc3C2)CC1 please.
## Result 29

## Task Quote UniProt Q14524 inhibition at 1 µM for entry O=C1c2cc(-c3ccc(C(F)(F)F)cc3)c(F)cc2OCCN1Cc1ccccc1 .
## Result 44

## Task # return inhibition at 1 µM of O=C1c2cc(-c3ccc(OC(F)(F)F)cc3)ccc2OCCN1Cc1ccccn1 (system: UniProt Q14524)
## Result 60

----------
- SYSTEM UNDER TEST: wild-type human cardiac sodium channel, hNav1.5 (Homo sapiens, UniProt Q14524)
- EXPERIMENT NOTES: Late INa screening assay (QPatch whole cell patch clamp, HEK293)
- Assay type: cell-based
- STATED CONDITIONS: HEK293, percent block of late INa; compound at 1 μM; 10 μM Tefluthrin; read-out: Late INa 1 μM
Quick rule for you: inhibition at 1 µM at 30% or higher means Y, lower means N.

{"STRUCTURE STRING": "O=C1c2cc(CCc3ccc(C(F)(F)F)cc3)ccc2OCCN1Cc1ccccn1", "CLASS NAME": "Y"}
{"STRUCTURE STRING": "O=C1c2cc(-c3ccc(C(F)(F)F)cc3F)ccc2OCCN1Cc1ncccn1", "CLASS NAME": "Y"}
{"STRUCTURE STRING": "O=C1c2cc(-c3ccc(C(F)F)cc3)ccc2OCCN1Cc1ncccn1", "CLASS NAME": "N"}
{"STRUCTURE STRING": "O=C1c2cc(-c3ccc(OC(F)(F)F)cc3)ccc2OCCN1CCNS(=O)(=O)C1CC1", "CLASS NAME": "N"}

Kindly review the next compound as well.
## Task Could you please find out whether O=C1c2cc(-c3ccc(F)c(F)c3)ccc2OCCN1Cc1ncccn1 has inhibition at 1 µM that meets 30% or exceeds it?
## Result N
